Tested on: Chaetomium globusum
protocol_notes: Use Example B: minimum inhibitory concentration against fungi on malt extract agar
Assay type: cell-based
condition_info: 2 weeks at 28° C., 60-70% relative atmospheric humidity
property_name: Minimum inhibitory concentration Chaetomium globusum (ppm)
Express your answer in ppm, writing the number without its unit.

Quick one: give measured Minimum inhibitory concentration Chaetomium globusum for CCCCc1cc([N+](=O)[O-])no1 [Example 4]
400

Quick one: give measured Minimum inhibitory concentration Chaetomium globusum for O=[N+]([O-])c1cc(-c2ccccc2)on1 [Example 2]
200

Quick one: give measured Minimum inhibitory concentration Chaetomium globusum for Cc1cc([N+](=O)[O-])no1 [Example 3]
200

Quick one: give measured Minimum inhibitory concentration Chaetomium globusum for CCOc1ccc(-c2cc([N+](=O)[O-])no2)cc1Cl [Example 5]
100
